Target: Neuronal acetylcholine receptor; alpha4/beta2 (Rattus norvegicus, UniProt P09483+P12390)
Sequence (P09483 whole entry): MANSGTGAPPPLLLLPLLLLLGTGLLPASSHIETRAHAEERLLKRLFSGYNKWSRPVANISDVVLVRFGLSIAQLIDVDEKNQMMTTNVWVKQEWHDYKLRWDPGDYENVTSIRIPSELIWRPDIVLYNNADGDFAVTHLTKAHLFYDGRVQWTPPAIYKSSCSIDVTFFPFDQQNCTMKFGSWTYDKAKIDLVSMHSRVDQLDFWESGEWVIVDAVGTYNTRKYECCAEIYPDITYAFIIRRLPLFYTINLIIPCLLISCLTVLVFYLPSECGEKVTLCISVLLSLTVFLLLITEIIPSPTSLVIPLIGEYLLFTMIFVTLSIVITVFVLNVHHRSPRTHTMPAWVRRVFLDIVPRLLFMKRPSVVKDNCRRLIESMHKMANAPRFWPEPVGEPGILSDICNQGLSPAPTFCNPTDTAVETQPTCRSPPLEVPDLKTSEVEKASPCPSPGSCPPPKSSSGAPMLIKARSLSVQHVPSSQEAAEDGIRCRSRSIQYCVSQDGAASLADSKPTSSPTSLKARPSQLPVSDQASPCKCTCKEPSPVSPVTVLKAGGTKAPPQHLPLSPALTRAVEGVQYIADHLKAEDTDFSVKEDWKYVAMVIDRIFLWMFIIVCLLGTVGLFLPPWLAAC
Sequence (P12390 whole entry): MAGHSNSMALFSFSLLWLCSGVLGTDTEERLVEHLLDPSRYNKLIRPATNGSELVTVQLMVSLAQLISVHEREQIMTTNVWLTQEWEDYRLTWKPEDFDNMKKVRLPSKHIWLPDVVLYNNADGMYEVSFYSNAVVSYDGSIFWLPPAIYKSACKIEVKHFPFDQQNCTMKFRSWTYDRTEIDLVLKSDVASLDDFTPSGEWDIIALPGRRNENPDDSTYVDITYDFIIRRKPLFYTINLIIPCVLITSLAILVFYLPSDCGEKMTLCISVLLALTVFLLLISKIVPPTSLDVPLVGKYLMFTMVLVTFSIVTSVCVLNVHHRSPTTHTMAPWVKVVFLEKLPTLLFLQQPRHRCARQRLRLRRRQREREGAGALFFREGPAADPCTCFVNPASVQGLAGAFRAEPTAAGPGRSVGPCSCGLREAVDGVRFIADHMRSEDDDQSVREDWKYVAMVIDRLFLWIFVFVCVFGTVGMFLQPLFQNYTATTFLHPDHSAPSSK
Experiment: Inhibition of rat (alpha4)2(beta2)3 nAChR expressed in Xenopus laevis oocytes assessed as inhibition of 100 uM ACh-induced current by two electrode-electrophysiology method
Assay type: cell-based
value.type: Ki (µM)

mol=c1cc2c(cn1)[C@H]1CCCN1CC2 numeric_readout=0.34

###

Biological target: Neuronal acetylcholine receptor; alpha4/beta2 (Rattus norvegicus, UniProt P09483+P12390)
Test: Antagonist activity at rat alpha4beta2 nAChR expressed in HEK293T cells by FLIPR assay
Format: cell-based, HEK-293T
pIC50: −log10 of the molar value.
value.type: pIC50

compound="c1cc2c(cn1)C1CCCN1CC2 (racemic)" numeric_readout=6.92

Data provenance: ChEMBL document CHEMBL3576860
